Test system: Mus musculus
Experiment: Antinociceptive activity in Swiss mouse assessed as inhibition of acetic acid induced writhing at 50 mg/kg, po measured every 5 mins for 45 mins
Format: functional
readout.name: inhibition in vivo at 50 mg/kg (%)
Kindly provide the numeric value in % only, without the unit symbol.

Worked examples follow.
CN(C)c1nc(Nc2ccccc2)c2c(n1)-c1ccccc1CC2 51
Nc1nc(NCc2ccccc2)c2c(n1)-c1ccccc1CC2 8
Nc1nc(NCCc2ccccc2)c2c(n1)-c1ccccc1CC2 32

Turning now to a further record.
[Q] Notebook: pull reported inhibition in vivo at 50 mg/kg for Mus musculus, entry CNc1nc(Nc2ccccc2)c2c(n1)-c1ccccc1CC2
[A] 0

---

Experiment: Antiplatelet activity against guinea pig platelet-rich plasma assessed as inhibition of arachidonic acid-induced platelet aggregation measured within 3 hrs by turbidimetric method
Assay type: functional
Details: Cavia porcellus
readout.name: IC50 (µM)
Record the value in µM, omitting the unit from your answer.

A selection of reference data follows.
compound	output.unit	experimental.result
Nc1nc2c(c(N3CCCCC3)n1)CCc1ccccc1-2	µM	68
CN(C)c1nc(Nc2ccccc2)c2c(n1)-c1ccccc1CC2	µM	46

[Q] Request the reported IC50 associated with Nc1nc2c(c(N3CCCC3)n1)CCc1ccccc1-2
[A] 166

[Q] Now consider CC(=O)Oc1ccccc1C(=O)O [ASPIRIN] and answer again.
[A] 45

[Q] Same question for Nc1nc(NCCc2ccccc2)c2c(n1)-c1ccccc1CC2 please.
[A] 89

[Q] Can you handle CNc1nc(Nc2ccccc2)c2c(n1)-c1ccccc1CC2 next?
[A] 105

[Q] Another compound to check: Nc1nc(Nc2ccccc2)c2c(n1)-c1ccccc1CC2
[A] 89

[Q] Again, but for Nc1nc(NCc2ccccc2)c2c(n1)-c1ccccc1CC2
[A] 200

[Q] Same lookup for Nc1nc2c(c(N3CCOCC3)n1)CCc1ccccc1-2 , please.
[A] 224
